biological target: neurokinin-1 (NK-1) receptor (Homo sapiens); construct: a human glioblastoma-astrocytoma cell line that endogenously expresses the neurokinin-1 (NK-1) receptor; endogenous in cells; host or cells: U373 human glioblastoma-astrocytoma cells (membranes); assay: NK-1 Binding assay ([125I] Substance P competition, U373 cell membranes); details: Table 2; U373 membranes, [125I] Substance P displacement; read-out: NK-1 IC50
Sequence (P25103 whole entry): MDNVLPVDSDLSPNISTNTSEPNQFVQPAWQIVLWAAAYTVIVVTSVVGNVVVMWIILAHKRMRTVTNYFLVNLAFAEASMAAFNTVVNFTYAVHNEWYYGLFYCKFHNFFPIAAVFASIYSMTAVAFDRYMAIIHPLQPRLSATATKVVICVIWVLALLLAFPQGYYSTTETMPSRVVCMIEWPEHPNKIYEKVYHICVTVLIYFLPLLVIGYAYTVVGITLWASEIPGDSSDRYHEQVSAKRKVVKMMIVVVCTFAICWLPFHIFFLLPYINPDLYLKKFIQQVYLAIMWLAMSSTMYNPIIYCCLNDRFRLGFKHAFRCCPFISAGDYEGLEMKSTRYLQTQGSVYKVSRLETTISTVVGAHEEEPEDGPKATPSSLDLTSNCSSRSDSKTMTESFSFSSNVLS
pIC50: −log10 of the molar value.
outcomeMeasure: pIC50

Guide cases for pIC50, answers given:
Entry under test: NC(=O)c1cc(COCC2(c3ccccc3)CCNCC2)cc(-c2ccc(F)cc2)c1 . Its pIC50 was < 6.52

Entry under test: N#Cc1cc(F)c(-c2cc(COCC3(c4ccccc4)CCNCC3)cc(C(F)(F)F)c2)cc1F . Its pIC50 was 7.00 to 11.00

For this molecule ( COC(=O)c1cc(-c2cc(COCC3(c4ccccc4)CCNCC3)cc(C(F)(F)F)c2)cc([N+](=O)[O-])c1 ), measured pIC50 is < 6.52

COc1c(F)cc(-c2cc(COCC3(c4ccccc4)CCNCC3)cc(C(F)(F)F)c2)cc1F yielded pIC50 of 7.00 to 11.00

Recorded pIC50 (molecule COc1cc(F)c(-c2cc(COCC3(c4ccccc4)CCN(C)CC3)cc(C(F)(F)F)c2)cc1F ): 7.00 to 11.00

Batch request: pIC50 per item, same order as input.
1. COC(=O)c1cccc(-c2cc(COCC3(c4ccccc4)CCNCC3)cc(C(F)(F)F)c2)c1
2. CCCCc1ccc(-c2cc(COCC3(c4ccccc4)CCNCC3)cc(C(F)(F)F)c2)cc1
3. COc1ccc(-c2cc(COCC3(c4ccccc4)CCN(C)CC3)cc(C(F)(F)F)c2)c(F)c1F
4. N#Cc1ccc(-c2cc(COCC3(c4ccccc4)CCNCC3)cc(C(F)(F)F)c2)nc1
5. FC(F)(F)c1cc(COCC2(c3ccccc3)CCNCC2)cc(-c2cc(Cl)ccc2Cl)c1
6. FC(F)(F)c1cc(COCC2(c3ccccc3)CCNCC2)cc(-c2c(C(F)(F)F)cccc2C(F)(F)F)c1
7. CN1CCC(COCc2cc(-c3ccc(F)cc3F)cc(C(F)(F)F)c2)(c2ccccc2)CC1

1. 6.52 to 7.00
2. 7.00 to 11.00
3. 7.00 to 11.00
4. 7.00 to 11.00
5. < 6.52
6. 7.00 to 11.00
7. 7.00 to 11.00

---

target: neurokinin-1 (NK-1) receptor (Homo sapiens); construct: a human glioblastoma-astrocytoma cell line that endogenously expresses the neurokinin-1 (NK-1) receptor; endogenous in cells; host or cells: U373 human glioblastoma-astrocytoma cells (membranes); assay: NK-1 Binding assay ([125I] Substance P competition, U373 cell membranes); conditions: Table 1; U373 membranes, [125I] Substance P displacement; read-out: NK-1 IC50
pIC50: −log10 of the molar value.
outcomeMeasure: pIC50

// known answers, use as guide
Short answer on neurokinin-1 (NK-1) receptor (Homo sapiens) for Cc1cc(C)cc(-c2cc(COCC3(c4ccccc4)CCNCC3)cc(C(F)(F)F)c2)c1 , pIC50: < 6.52

Record FC(F)(F)c1cc(COCC2(c3ccccc3)CCNCC2)cc(-c2ccccn2)c1 ; system neurokinin-1 (NK-1) receptor (Homo sapiens); pIC50 = 7.00 to 11.00

Form field pIC50 for item Fc1ccc(-c2cc(COCC3(c4ccccc4)CCNCC3)cc(C(F)(F)F)c2)c(F)c1 on neurokinin-1 (NK-1) receptor (Homo sapiens): 7.00 to 11.00

Give pIC50 for all molecules that follow.
1. CSc1ccccc1-c1cc(COCC2(c3ccccc3)CCNCC2)cc(C(F)(F)F)c1
2. CC(OCC1(c2ccccc2)CCNCC1)c1cc(-c2ccc(C#N)cc2)cc(C(F)(F)F)c1 (stereo not drawn)
3. CCOc1ccc(-c2cc(COCC3(c4ccccc4)CCNCC3)cc(C(F)(F)F)c2)cc1
4. Fc1cc(-c2cc(COCC3(c4ccccc4)CCNCC3)cc(C(F)(F)F)c2)c(Cl)cn1
5. FC(F)(F)c1cc(COCC2(c3ccccc3)CCNCC2)cc(-c2cnc3ccccc3c2)c1
6. CN1CCN(c2cc(-c3cc(COCC4(c5ccccc5)CCNCC4)cc(C(F)(F)F)c3)ccn2)CC1

1. 6.52 to 7.00
2. 7.00 to 11.00
3. 7.00 to 11.00
4. 7.00 to 11.00
5. 6.52 to 7.00
6. < 6.52

---

target: human serotonin transporters (Homo sapiens, UniProt P31645); construct: expressed in transfected cells; assay: Serotonin transporter binding assay ([3H]-citalopram competition, HEK-hSERT cell membranes)
Sequence (P31645 whole entry): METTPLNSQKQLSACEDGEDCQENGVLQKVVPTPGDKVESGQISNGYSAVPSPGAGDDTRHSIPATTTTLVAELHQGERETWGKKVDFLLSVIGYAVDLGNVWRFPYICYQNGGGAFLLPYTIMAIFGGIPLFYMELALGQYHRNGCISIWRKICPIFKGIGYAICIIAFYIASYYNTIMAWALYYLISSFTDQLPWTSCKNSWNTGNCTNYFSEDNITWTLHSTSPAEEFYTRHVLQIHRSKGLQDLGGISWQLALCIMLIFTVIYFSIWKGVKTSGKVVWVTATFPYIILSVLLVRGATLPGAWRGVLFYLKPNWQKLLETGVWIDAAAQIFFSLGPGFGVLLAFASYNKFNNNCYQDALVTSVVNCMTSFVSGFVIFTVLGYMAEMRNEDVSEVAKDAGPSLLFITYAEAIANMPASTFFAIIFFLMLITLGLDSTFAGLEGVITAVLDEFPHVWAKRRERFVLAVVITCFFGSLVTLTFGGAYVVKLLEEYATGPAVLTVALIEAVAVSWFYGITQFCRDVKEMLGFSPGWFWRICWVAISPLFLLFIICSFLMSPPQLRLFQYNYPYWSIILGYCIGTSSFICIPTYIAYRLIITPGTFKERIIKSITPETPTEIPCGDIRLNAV
outcomeMeasure: IC50

See these solved cases before continuing.
Briefly, IC50 measured for CN1CCC(COCc2cc(-c3ccc(F)c(Cl)c3)cc(C(F)(F)F)c2)(c2ccccc2)CC1 : 0.01 to 100 nM

The molecule CN1CCC(COCc2cc(-c3c(F)c(F)c(C#N)c(F)c3F)cc(C(F)(F)F)c2)(c2ccccc2)CC1 showed IC50 equal to 0.01 to 100 nM

---
CN1CCC(COCc2cc(-c3ccc(C#N)cc3)cc(C(F)(F)F)c2)(c2cccc(Br)c2)CC1 yielded IC50 of 0.01 to 100 nM

---

target: neurokinin-1 (NK-1) receptor (Homo sapiens); construct: a human glioblastoma-astrocytoma cell line that endogenously expresses the neurokinin-1 (NK-1) receptor; endogenous in cells; host or cells: U373 human glioblastoma-astrocytoma cells (membranes); test: NK-1 Binding assay ([125I] Substance P competition, U373 cell membranes); conditions: Table 1; U373 membranes, [125I] Substance P displacement; read-out: NK-1 IC50
Answer each item with its documented IC50.

Some solved cases for reference:
response.value for Fc1cc(F)cc(-c2cc(COCC3(c4ccccc4)CCNCC3)cc(C(F)(F)F)c2)c1 (field: IC50) = 0.01 to 100 nM

// field: IC50; key: Cc1ccc(-c2cc(COCC3(c4ccccc4)CCNCC3)cc(C(F)(F)F)c2)s1 ; value = 0.01 to 100 nM

Measured IC50, CC(=O)c1ccc(-c2cc(COCC3(c4ccccc4)CCNCC3)cc(C(F)(F)F)c2)cc1 : 100 to 300 nM

Form field IC50, entry CCCCCc1ccc(-c2cc(COCC3(c4ccccc4)CCNCC3)cc(C(F)(F)F)c2)cc1 : 0.01 to 100 nM

get_value(item= N#Cc1ccc(-c2cc(COCC3(c4ccccc4)CCNCC3)cc(C(F)(F)F)c2)cc1 , readout=IC50) returns 0.01 to 100 nM

Hey, can you go through the list below and give me IC50 for every item?
1. Nc1ccc(-c2cc(COCC3(c4ccccc4)CCNCC3)cc(C(F)(F)F)c2)cn1
2. Oc1ccc(-c2cc(COCC3(c4ccccc4)CCNCC3)cc(C(F)(F)F)c2)cc1
3. FC(F)(F)c1cc(COCC2(c3ccccc3)CCNCC2)cc(-c2ccccc2Oc2ccccc2)c1
4. COc1ccc(-c2ccncc2)cc1COCC1(c2ccccc2)CCNCC1
5. Fc1cccc(F)c1-c1cc(COCC2(c3ccccc3)CCNCC2)cc(C(F)(F)F)c1
6. FC(F)(F)c1cc(COCC2(c3ccccc3)CCNCC2)cc(-c2ccc(Cl)nc2)c1

1. 0.01 to 100 nM
2. 0.01 to 100 nM
3. > 300 nM
4. > 300 nM
5. 0.01 to 100 nM
6. 0.01 to 100 nM

---

Please go through the items and note down their IC50.
target: human serotonin transporters (Homo sapiens); construct: expressed in transfected cells; assay: Serotonin transporter binding assay ([3H]-citalopram competition, HEK-hSERT cell membranes); conditions: Table 2; HEK-hSERT membranes, [3H]-citalopram displacement; read-out: SERT IC50

For every item in the list below, what is its measured IC50?
1. N#Cc1c(F)c(F)c(-c2cc(COCC3(c4ccccc4)CCNCC3)cc(C(F)(F)F)c2)c(F)c1F
2. Fc1cnc(Cl)c(-c2cc(COCC3(c4ccccc4)CCNCC3)cc(C(F)(F)F)c2)c1
3. C[C@H](OCC1(c2ccccc2)CCNCC1)c1cc(-c2ccc(C#N)cc2)cc(C(F)(F)F)c1
4. N#Cc1ccc(-c2cc(COCC3(c4ccccc4)CCNCC3)cc(C(=O)N3CCOCC3)c2)cc1
5. COc1c(F)cc(-c2cc(COCC3(c4ccccc4)CCNCC3)cc(C(F)(F)F)c2)cc1F
6. COC(=O)c1cccc(-c2cc(COCC3(c4ccccc4)CCNCC3)cc(C(F)(F)F)c2)c1

["0.01 to 100 nM", "0.01 to 100 nM", "100 to 300 nM", "0.01 to 100 nM", "0.01 to 100 nM", "0.01 to 100 nM"]

List reported IC50 for each of these compounds:
1. N#Cc1ccc(-c2cc(COCC3(c4ccccc4)CCNCC3)cc(C(F)(F)F)c2)cc1F
2. N#Cc1ccc(-c2cc(C#N)cc(COCC3(c4ccccc4)CCNCC3)c2)cc1
3. CCOC(=O)c1ccccc1-c1cc(COCC2(c3ccccc3)CCNCC2)cc(C(F)(F)F)c1

["0.01 to 100 nM", "0.01 to 100 nM", "100 to 300 nM"]

The measured values listed here are drawn from patent US20070249607A1.
